# credit: BindingDB's records for doi:10.1021/jm970522y

target: Dimer of Gag-Pol polyprotein [489-587] (Human immunodeficiency virus 1); construct: 489-587; test: Protease Inhibition Assay; conditions: pH 6.2; 37 °C
QUANTITY NAME: log10 IC50 (log10 of the value in nM)
Annotation: log10 of IC50, nM basis.

Cc1cc(SC2C(=O)CC(CCc3ccccc3)(c3ccc(OCCO)cc3)OC2=O)c(C(C)(C)C)cc1CO (configuration not stated) : 0.15
Cc1cc(SC2C(=O)CC(CCc3ccc(O)cc3)(c3ccc(O)cc3)OC2=O)c(C(C)(C)C)cc1CO (configuration not stated) : 2.08
Cc1cc(SC2C(=O)CC(CCc3ccccc3)(c3ccccc3)OC2=O)c(C(C)(C)C)cc1O (configuration not stated) : 1.52
Cc1ccc(C(C)(C)C)c(SC2C(=O)CC(CCc3ccc(N)cc3)(c3ccccc3)OC2=O)c1 (configuration not stated) : 1.38
Cc1ccc(C(C)(C)C)c(SC2C(=O)CC(CCc3ccccc3)(c3ccc(O)cc3)OC2=O)c1 (configuration not stated) : 1.60

Sure, the documented log10 IC50 for Cc1cc(SC2C(=O)CC(CCc3ccc(O)cc3)(C(C)C)OC2=O)c(C(C)(C)C)cc1CO (configuration not stated) is 0.56

Form: compound = Cc1ccc(C(C)(C)C)c(SC2C(=O)CC(CCc3ccc(O)cc3)(c3ccccc3)OC2=O)c1 (configuration not stated) [PD 178390 Analog 1] ; log10 IC50 = 1.04

* * *

biological target: Dimer of Gag-Pol polyprotein [489-587] (Human immunodeficiency virus 1, UniProt P12497); construct: 489-587; test: Protease Inhibition Assay; conditions: pH 6.2; 37 °C
QUANTITY NAME: IC50 (nM)
Number only, in nM; omit the unit.

For orientation, consider the following solved cases.
Cc1cc(SC2C(=O)CC(CCc3ccc(O)cc3)(C3CCCCC3)OC2=O)c(C(C)(C)C)cc1CO (stereo unspecified) [PD 178390 Analog 21] : 4.1
Cc1ccc(C(C)(C)C)c(SC2C(=O)CC(CCc3ccccc3)(c3ccc(OCCO)cc3)OC2=O)c1 (stereo unspecified) : 12
COCc1cc(C(C)(C)C)c(SC2C(=O)CC(CCc3ccccc3)(c3ccc(OCCO)cc3)OC2=O)cc1C (stereo unspecified) : 4.5
Cc1cc(SC2C(=O)CC(CCc3cccc(N)c3)(c3ccccc3)OC2=O)c(C(C)(C)C)cc1CO (stereo unspecified) : 4
COc1cc(C(C)(C)C)c(SC2C(=O)CC(CCc3ccccc3)(c3ccccc3)OC2=O)cc1C (stereo unspecified) : 15
Cc1cc(SC2C(=O)CC(CCc3ccc(N)cc3)(C3CCCCC3)OC2=O)c(C(C)(C)C)cc1CO (stereo unspecified) [PD 178390 Analog 36] : 3.2

Entry under test: Cc1cc(SC2C(=O)CC(CCc3cccc(O)c3)(c3ccccc3)OC2=O)c(C(C)(C)C)cc1CO (stereo unspecified) . Its IC50 was 2.5

The reported IC50 of the molecule Cc1ccc(C(C)(C)C)c(SC2C(=O)CC(CCc3ccccc3)(c3ccccc3)OC2=O)c1 (stereo unspecified) [4-Hydroxy-5,6-dihydropyrone deriv. 49] was 35

// IC50 lookup, molecule = Cc1cc(SC2C(=O)CC(CCc3ccccc3)(c3ccc(OCCO)cc3)OC2=O)c(C(C)(C)C)cc1O (stereo unspecified) , result: 3.7

The measured IC50 associated with Cc1cc(SC2C(=O)CC(CCc3ccccc3)(c3ccccc3)OC2=O)c(C(C)(C)C)cc1OCCO (stereo unspecified) [PD 178390 Analog 41] reads 6.8

# IC50 (molecule: Cc1cc(SC2C(=O)CC(CCc3ccccc3)(c3ccc(OCCO)cc3)OC2=O)c(C(C)(C)C)cc1OCCO (stereo unspecified) ) is 6.4

* * *

# key: entry, value: log10 of IC50
target: Dimer of Gag-Pol polyprotein [489-587] (Human immunodeficiency virus 1, UniProt P12497); construct: 489-587; experiment: Protease Inhibition Assay; details: pH 6.2; 37 °C
Please note: log10 values; quantity IC50; unit nM.

Summary for this compound, Cc1ccc(C(C)(C)C)c(SC2C(=O)CC(CCc3ccccc3)(c3ccc(N)cc3)OC2=O)c1 (stereo not given) : log10 of IC50 is 1.51

* * *

biological target: Dimer of Gag-Pol polyprotein [489-587] (Human immunodeficiency virus 1, UniProt P12497); construct: 489-587; assay: Protease Inhibition Assay; details: pH 6.2; 37 °C
QUANTITY NAME: IC50 (nM)
Express your answer in nM, writing the number without its unit.

Cc1cc(SC2C(=O)CC(CCc3ccc(N)cc3)(C(C)C)OC2=O)c(C(C)(C)C)cc1CO (centres undefined) : 2.7
Cc1cc(SC2C(=O)CC(CCc3ccc(N)cc3)(c3ccccc3)OC2=O)c(C(C)(C)C)cc1CO (centres undefined) : 3.1
Cc1cc(SC2C(=O)CC(CCc3ccccc3)(c3ccccc3)OC2=O)c(C(C)(C)C)cc1CO (centres undefined) : 6.6

Cc1cc(SC2C(=O)CC(C)(CCc3ccc(O)cc3)OC2=O)c(C(C)(C)C)cc1CO (centres undefined) yielded IC50 of 4.3
